The entries below come with measured T ½ values attached.
# system_tested: T1, Human BCMA (human, UniProt Q02223 1-54, limits assumed)
# T1 construct: Soluble analyte in SPR; construct not described; also called huBCMA; B-cell maturation antigen
# T1 sequence (looked up): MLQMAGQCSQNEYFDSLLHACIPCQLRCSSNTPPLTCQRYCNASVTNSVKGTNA
# protocol_details: SPR, IgG immobilised, 37 C
# Description: All experiments were performed on a Bio-Rad Proteon XPR36 surface Plasmon resonance biosensor (Bio-Rad, Hercules, Calif.). […] The analysis temperature for the immobilization was 25° C. and the running buffer was HBS-T+(10 mM HEPES, 150 mM NaCl, 0.05% Tween-20, pH 7.4). […] The analysis temperature for the BCMA binding analysis was 37° C. or 25° C. in a running buffer of HBS-T+, supplemented with 1 mg/mL BSA. […] Immediately after the 50 nM BCMA injection, dissociation was monitored for 2 hours. […]
Express your answer in min, writing the number without its unit.

# count of solved cases: 3
[
  {
    "binder": "L3.PY/L1.PS/H2.DY (antibody, V domains shown, IgG) VH: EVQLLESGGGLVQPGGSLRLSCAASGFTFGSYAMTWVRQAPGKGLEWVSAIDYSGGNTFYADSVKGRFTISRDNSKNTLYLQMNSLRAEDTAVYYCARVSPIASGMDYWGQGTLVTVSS VL: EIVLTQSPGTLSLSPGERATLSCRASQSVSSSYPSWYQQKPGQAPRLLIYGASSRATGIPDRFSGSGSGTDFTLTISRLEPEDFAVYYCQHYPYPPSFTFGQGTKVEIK",
    "T ½ [min]": 3.2
  },
  {
    "binder": "L3.PY/L1.AH/H2.LT (antibody, V domains shown, IgG) VH: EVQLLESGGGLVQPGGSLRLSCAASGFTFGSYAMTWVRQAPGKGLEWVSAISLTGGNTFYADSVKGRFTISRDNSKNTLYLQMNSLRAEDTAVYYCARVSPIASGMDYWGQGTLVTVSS VL: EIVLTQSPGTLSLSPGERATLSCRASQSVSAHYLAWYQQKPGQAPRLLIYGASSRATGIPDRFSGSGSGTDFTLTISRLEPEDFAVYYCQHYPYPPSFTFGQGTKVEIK",
    "T ½ [min]": 9.38
  },
  {
    "binder": "L3.PY/L1.AH/H2.YQ (antibody, V domains shown, IgG) VH: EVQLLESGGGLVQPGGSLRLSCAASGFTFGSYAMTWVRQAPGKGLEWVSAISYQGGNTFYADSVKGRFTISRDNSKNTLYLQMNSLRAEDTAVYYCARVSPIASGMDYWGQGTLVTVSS VL: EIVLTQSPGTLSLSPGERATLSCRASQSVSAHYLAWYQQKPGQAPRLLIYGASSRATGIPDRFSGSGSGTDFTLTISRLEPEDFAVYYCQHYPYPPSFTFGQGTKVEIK",
    "T ½ [min]": 6
  }
]

Request: Param item = L3.PY/L1.AH/H2.QL (antibody, V domains shown, IgG) VH: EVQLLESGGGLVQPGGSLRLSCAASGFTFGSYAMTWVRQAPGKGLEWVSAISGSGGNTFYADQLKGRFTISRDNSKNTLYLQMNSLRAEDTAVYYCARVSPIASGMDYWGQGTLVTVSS VL: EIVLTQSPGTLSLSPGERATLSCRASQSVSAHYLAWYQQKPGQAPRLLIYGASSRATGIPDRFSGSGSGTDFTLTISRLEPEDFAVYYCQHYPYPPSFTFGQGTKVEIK ; retrieve measured T ½.
Result: 7.22

Request: Using the record for L3.PY/L1.FF/H2.QR (antibody, V domains shown, IgG) VH: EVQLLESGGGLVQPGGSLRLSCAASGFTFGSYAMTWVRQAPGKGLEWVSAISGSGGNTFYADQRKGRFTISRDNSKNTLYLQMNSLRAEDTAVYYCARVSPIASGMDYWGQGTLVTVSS VL: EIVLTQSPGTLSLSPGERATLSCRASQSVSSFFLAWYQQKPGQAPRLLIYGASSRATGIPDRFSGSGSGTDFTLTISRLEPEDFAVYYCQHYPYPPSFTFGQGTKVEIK , report its T ½.
Result: 6.54
